- target.system: human α7 nAChR (Homo sapiens, UniProt P36544)
- Construct: expressed in transfected cells
- Sequence (P36544 23-502): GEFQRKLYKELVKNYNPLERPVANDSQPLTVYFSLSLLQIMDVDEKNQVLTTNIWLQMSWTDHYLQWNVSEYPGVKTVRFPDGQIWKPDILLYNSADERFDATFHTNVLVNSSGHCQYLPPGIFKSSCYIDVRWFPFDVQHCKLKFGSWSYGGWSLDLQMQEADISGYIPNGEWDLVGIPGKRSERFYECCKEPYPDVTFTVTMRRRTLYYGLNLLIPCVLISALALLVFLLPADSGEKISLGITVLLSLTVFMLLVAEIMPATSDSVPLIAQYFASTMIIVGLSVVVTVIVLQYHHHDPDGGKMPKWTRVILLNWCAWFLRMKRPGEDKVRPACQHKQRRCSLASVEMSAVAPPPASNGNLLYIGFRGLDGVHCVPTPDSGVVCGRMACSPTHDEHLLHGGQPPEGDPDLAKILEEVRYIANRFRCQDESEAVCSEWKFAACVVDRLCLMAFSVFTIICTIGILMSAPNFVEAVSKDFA
- run.description: Evaluation of PAM activity with human α7 nACh receptor stably expressing cells (aequorin luminescence, FDSS7000)
- Type: cell-based
- experimental.context: 10 μM test compound; ACh at EC20; ratio of RLU (Max-Min) to control wells; read-out: α7PAM (%) @10 μM
- Procedure: Evaluation of PAM activity with human α7 nACh receptor stably expressing cells (1) Human α7 nAChR stably expressing cells Human α7 nAChR stably expressing cells were generated and cultured. Thus, the cells were subcultured. Seven days after subculturing, the cells were treated with TrypLE Express to collect them when they were about 80% confluent. […] FDSS7000 (Hamamatsu Photonics) was used to detect the luminescence signal evoked by α7 nAChR stimulation. […]
The label depends only on activity at 10 µM: class 1 if it is at least 300%, class 0 if it is smaller.

Would you please look over these solved cases?
smiles.str: O=C(NC1CCC(F)(F)CC1)N1[C@@H]2CC[C@H]1C[C@H](n1cnc(-c3ccc(F)cc3F)c1Cl)C2
label.class: class 1
--
smiles.str: O=C(C1CCC(F)(F)CC1)N1CCC(n2cnc(-c3ccc(F)c(F)c3)c2)CC1
label.class: class 0
--
smiles.str: O=C(C1CCC(F)(F)CC1)N1CCC(n2cnc(-c3ccc(F)cc3)c2)CC1
label.class: class 1

Ask: Could you please find out whether N#Cc1c(-c2ccc(F)cc2)ncn1[C@@H]1C[C@H]2CC[C@@H](C1)N2C(=O)C1CCC(F)(F)CC1 has activity at 10 µM that meets 300% or exceeds it?
Reply: class 0

Ask: Could you please find out whether O=C(NC1CCOCC1)N1CCC(n2cnc(-c3cccc(C(F)(F)F)c3)c2Cl)CC1 has activity at 10 µM that meets 300% or exceeds it?
Reply: class 1

Ask: Could you please find out whether CC(C)(C(=O)N[C@H]1CC[C@@H](n2cnc(-c3ccc(F)cc3)c2)CC1)C(F)(F)F has activity at 10 µM that meets 300% or exceeds it?
Reply: class 0

###

- target.system: human α7 nAChR (Homo sapiens, UniProt P36544)
- Construct: expressed in transfected cells
- run.description: Evaluation of PAM activity with human α7 nACh receptor stably expressing cells (aequorin luminescence, FDSS7000)
- Assay type: cell-based
- experimental.context: 10 μM test compound; ACh at EC20; ratio of RLU (Max-Min) to control wells; read-out: α7PAM (%) @10 μM
The label depends only on activity at 10 µM: Criterion met if it is at least 400%, Criterion not met if it is smaller.

compound: COc1cc(F)c(-c2cn([C@H]3CC[C@@H](NC(=O)C(C)(C)F)CC3)cn2)cc1F
label.class: Criterion not met

compound: O=C(C1CCC(F)(F)CC1)N1[C@@H]2CC[C@H]1C[C@H](n1cnc(-c3ccccc3)c1)C2
label.class: Criterion not met

compound: O=C(c1ccc(F)cn1)N1CCC(n2cnc(-c3ccc(F)c(F)c3)c2)CC1
label.class: Criterion not met

compound: O=C(NC1CCCCC1)N1CCC(n2cnc(-c3cccc(F)c3)c2Cl)CC1
label.class: Criterion met

compound: CC(C)(F)C(=O)N[C@H]1CC[C@@H](n2cnc(-c3ccccc3F)c2Cl)CC1
label.class: Criterion met

compound: O=C(NC1CCCCC1)N1CCCC(n2cnc(-c3ccc(F)cc3)c2Cl)CC1 (stereo not shown)
label.class: Criterion not met

Ask: Could you please find out whether O=C(N[C@H]1CC[C@@H](n2cnc(-c3ccccc3)c2Cl)CC1)C1CCCCC1 has activity at 10 µM that meets 400% or exceeds it?
Reply: Criterion met

Ask: Could you please find out whether O=C(C1CCOCC1)N1CCC(n2cnc(-c3ccc(C(F)(F)F)cc3)c2Cl)CC1 has activity at 10 µM that meets 400% or exceeds it?
Reply: Criterion met

Ask: Could you please find out whether O=C(C1CCOCC1)N1[C@@H]2CC[C@H]1C[C@H](n1cnc(-c3cccc(F)c3F)c1Cl)C2 has activity at 10 µM that meets 400% or exceeds it?
Reply: Criterion met

Ask: Could you please find out whether O=C(NC1CCCCC1)[C@H]1CC[C@@H](n2cnc(-c3ccccc3)c2)CC1 has activity at 10 µM that meets 400% or exceeds it?
Reply: Criterion not met

Ask: Could you please find out whether N#Cc1c(-c2ccc(C(F)(F)F)cc2)ncn1C1CCN(C(=O)C2CCC(F)(F)CC2)CC1 has activity at 10 µM that meets 400% or exceeds it?
Reply: Criterion not met

Ask: Could you please find out whether Cc1c(-c2ccc(F)cc2)ncn1[C@H]1CC[C@@H](Nc2cc(C(F)(F)F)ncn2)CC1 has activity at 10 µM that meets 400% or exceeds it?
Reply: Criterion not met

Ask: Could you please find out whether N#Cc1c(-c2ccc(F)cc2)ncn1C1CCN(C(=O)NC2CCCCC2)CC1 has activity at 10 µM that meets 400% or exceeds it?
Reply: Criterion met

Ask: Could you please find out whether O=C(NC1CCOCC1)N1CCC(n2cnc(-c3ccc(C(F)(F)F)c(F)c3)c2)CC1 has activity at 10 µM that meets 400% or exceeds it?
Reply: Criterion not met

Ask: Could you please find out whether O=C(c1ccc(F)cn1)N1CCC(n2cnc(-c3ccc(Cl)cc3)c2)CC1 has activity at 10 µM that meets 400% or exceeds it?
Reply: Criterion not met

Ask: Could you please find out whether O=C(C1CCC(F)(F)CC1)N1[C@@H]2CC[C@H]1C[C@@H](n1cnc(-c3ccccc3F)c1Cl)C2 has activity at 10 µM that meets 400% or exceeds it?
Reply: Criterion met

Ask: Could you please find out whether Cc1c(-c2ccc(F)cc2)ncn1[C@H]1CC[C@@H](NC(=O)C2CCOCC2)CC1 has activity at 10 µM that meets 400% or exceeds it?
Reply: Criterion not met

Ask: Could you please find out whether O=C(NC1CCCCC1)N1CCC(n2cnc(-c3ccc(F)c(F)c3)c2)CC1 has activity at 10 µM that meets 400% or exceeds it?
Reply: Criterion met

###

- target.system: human α7 nAChR (Homo sapiens, UniProt P36544)
- Construct: expressed in transfected cells
- run.description: Evaluation of PAM activity with human α7 nACh receptor stably expressing cells (aequorin luminescence, FDSS7000)
- Type: cell-based
- experimental.context: 10 μM test compound; ACh at EC20; ratio of RLU (Max-Min) to control wells; read-out: α7PAM (%) @10 μM
The label depends only on activity at 10 µM: Y if it is at least 300%, N if it is smaller.

Would you please look over these solved cases?
smiles.str: O=C(C1CCC(F)(F)CC1)N1[C@@H]2CC[C@H]1C[C@H](n1cnc(-c3ccc(F)cc3F)c1)C2
label.class: N
--
smiles.str: Cc1ccccc1-c1cn(C2CCN(C(=O)Nc3ccccc3F)CC2)cn1
label.class: N
--
smiles.str: O=C(NC1CCOCC1)[C@H]1CC[C@@H](n2cnc(-c3cccc(F)c3)c2Cl)CC1
label.class: Y

Consider the additional compound presented here.
Ask: Could you please find out whether CC(C)(F)C(=O)N[C@H]1CC[C@@H](n2cnc(-c3ccccc3)c2Cl)CC1 has activity at 10 µM that meets 300% or exceeds it?
Reply: Y

###

This section presents compounds with their documented activity at 10 µM values.
- target.system: human α7 nAChR (Homo sapiens, UniProt P36544)
- Construct: expressed in transfected cells
- run.description: Evaluation of PAM activity with human α7 nACh receptor stably expressing cells (aequorin luminescence, FDSS7000)
- Format: cell-based
- experimental.context: 10 μM test compound; ACh at EC20; ratio of RLU (Max-Min) to control wells; read-out: α7PAM (%) @10 μM
Provide only the numeric value, understood in %.

Guide cases for activity at 10 µM, answers given:
smiles.str: COc1ccc(-c2cn([C@H]3CC[C@@H](NC(=O)C(C)(C)F)CC3)cn2)cc1Cl
result.unit: %
activity at 10 µM: 513

smiles.str: O=C(C1CCC(F)(F)CC1)N1[C@@H]2CC[C@H]1C[C@H](n1cnc(-c3cccc(F)c3F)c1)C2
result.unit: %
activity at 10 µM: 128

smiles.str: O=C(C1CCC(F)(F)CC1)N1[C@@H]2CC[C@H]1C[C@@H](n1cnc(-c3ccccc3)c1)C2
result.unit: %
activity at 10 µM: 144

smiles.str: CC(C)(F)C(=O)N[C@H]1CC[C@@H](n2cnc(-c3ccc(OC(F)(F)F)cc3F)c2)CC1
result.unit: %
activity at 10 µM: 208

Here is the next item to consider.
Ask: Query: activity at 10 µM; subject: N#Cc1c(-c2cccc(F)c2)ncn1C1CCN(C(=O)C2CCC(F)(F)CC2)CC1
Reply: 252

###

This section presents compounds with their documented activity at 10 µM values.
- target.system: human α7 nAChR (Homo sapiens, UniProt P36544)
- Construct: expressed in transfected cells
- run.description: Evaluation of PAM activity with human α7 nACh receptor stably expressing cells (aequorin luminescence, FDSS7000)
- Assay type: cell-based
- experimental.context: 10 μM test compound; ACh at EC20; ratio of RLU (Max-Min) to control wells; read-out: α7PAM (%) @10 μM
Provide only the numeric value, understood in %.

Ask: Query: activity at 10 µM; subject: CC(C)(F)C(=O)N[C@H]1CC[C@@H](n2cnc(-c3cccc(F)c3)c2)CC1 [Example 294]
Reply: 326

Ask: Query: activity at 10 µM; subject: N#Cc1c(-c2ccc(F)c(F)c2)ncn1C1CCN(C(=O)C2CCC(F)(F)CC2)CC1 [Example 273]
Reply: 139

Ask: Query: activity at 10 µM; subject: COC1CCC(NC(=O)N2CCC(n3cnc(-c4ccc(C)s4)c3)CC2)CC1 (stereo not shown) [Example 128]
Reply: 188

Ask: Query: activity at 10 µM; subject: Fc1ccc(-c2ncn([C@H]3CC[C@@H](Nc4cc(C(F)(F)F)ncn4)CC3)c2Cl)cc1 [Example 237]
Reply: 405

Ask: Query: activity at 10 µM; subject: CC(C)(F)C(=O)N[C@H]1CC[C@@H](n2cnc(-c3cc(F)cc(F)c3)c2)CC1 [Example 302]
Reply: 325

Ask: Query: activity at 10 µM; subject: N#Cc1c(-c2ccc(F)cc2F)ncn1[C@H]1C[C@H]2CC[C@@H](C1)N2C(=O)NC1CCC(F)(F)CC1 [Example 402]
Reply: 498

Ask: Query: activity at 10 µM; subject: COc1cccc(-c2cn(C3CCN(C(=O)NC(C)(C)C)CC3)cn2)c1 [Example 70]
Reply: 158
